- subject.of.test: T1, polypeptide GC3pep (human)
- T1 construct: also called membrane proximal polypeptide GC3pep
- T1 peptide: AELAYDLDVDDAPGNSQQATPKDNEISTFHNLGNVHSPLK
- method: ELISA, GC3pep coated, antibody 0.01 nM;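 further: bound antibody detected with an HRP-conjugated secondary antibody and TMB substrate, color reaction stopped with HCl before reading absorbance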
# maps each entry to its OD450 nm

{"binder": "F2.169.2 (antibody, human IgG1, kappa, V domains shown, human-murine chimeric antibody) VH: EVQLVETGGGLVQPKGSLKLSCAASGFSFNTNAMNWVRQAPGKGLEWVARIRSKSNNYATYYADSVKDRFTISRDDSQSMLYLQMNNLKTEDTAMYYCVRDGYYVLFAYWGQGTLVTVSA VL: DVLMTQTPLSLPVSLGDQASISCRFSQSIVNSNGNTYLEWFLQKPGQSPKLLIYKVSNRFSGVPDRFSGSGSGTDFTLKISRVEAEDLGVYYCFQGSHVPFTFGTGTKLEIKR", "OD450 nm (OD450 nm)": 0.24}
{"binder": "F2.23.8 (antibody, human IgG1, kappa, V domains shown, human-murine chimeric antibody) VH: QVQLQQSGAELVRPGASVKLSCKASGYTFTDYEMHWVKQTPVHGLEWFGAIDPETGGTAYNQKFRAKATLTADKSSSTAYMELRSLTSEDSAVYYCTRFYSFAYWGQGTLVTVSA VL: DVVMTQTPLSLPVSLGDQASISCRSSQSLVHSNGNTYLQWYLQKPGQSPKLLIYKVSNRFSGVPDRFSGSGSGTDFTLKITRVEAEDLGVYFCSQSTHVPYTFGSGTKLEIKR", "OD450 nm (OD450 nm)": 0.3}
{"binder": "F3.81.19 (antibody, human IgG1, kappa, V domains shown, human-murine chimeric antibody) VH: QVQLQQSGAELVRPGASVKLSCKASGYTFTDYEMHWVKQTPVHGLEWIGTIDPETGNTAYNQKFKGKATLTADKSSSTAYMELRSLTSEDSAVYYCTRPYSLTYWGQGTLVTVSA VL: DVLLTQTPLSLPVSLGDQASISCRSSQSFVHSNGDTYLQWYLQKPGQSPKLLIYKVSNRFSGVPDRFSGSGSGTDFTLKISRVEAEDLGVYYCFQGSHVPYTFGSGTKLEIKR", "OD450 nm (OD450 nm)": 0.05}

Data provenance: patent US20260116991A1
